- EXPERIMENTAL SYSTEM: Phospholipid hydroperoxide glutathione peroxidase GPX4 (Homo sapiens) (UniProt P36969)
- Sequence (P36969 whole entry, looked up): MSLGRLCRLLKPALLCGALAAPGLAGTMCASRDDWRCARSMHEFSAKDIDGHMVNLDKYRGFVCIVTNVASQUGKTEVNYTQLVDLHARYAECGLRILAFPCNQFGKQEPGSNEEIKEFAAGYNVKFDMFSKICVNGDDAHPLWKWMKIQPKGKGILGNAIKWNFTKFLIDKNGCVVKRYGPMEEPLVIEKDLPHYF
- TEST SUMMARY: Primary qHTS Assay for Inhibitors of Recombinant Selenoprotein Glutathione Peroxidase 4 (GPX4) (AID 1845192); also: nearly all actives have a fitted effect of over 65% in size
- CONDITION: recombinant GPX4, GR-coupled NADPH fluorescence, 15 min; series mostly up to 50 µM
Results filed as inconclusive are left out. Calls of active or inactive are those of the source. Calls follow the shape of the dose curve; as a rule, active = well fitted inhibition curve with a large enough effect; inconclusive = small, poorly fitted or top-dose-only effect; inactive = flat fitted curve, though single readings scatter.
Labels: true (1) (active), false (0) (inactive)

COMPOUND: C=C1CC[C@@H]2[C@](C)(CO)[C@H](O)CC[C@@]2(C)[C@@H]1C/C=C1/C(=O)OC[C@@H]1O
EXPERIMENTAL SYSTEM: Phospholipid hydroperoxide glutathione peroxidase GPX4 (Homo sapiens) (UniProt P36969)
CAT: false (0)
//
COMPOUND: COc1ccc2c(c1)C[C@H](C(=O)Nc1ccc(-c3cn[nH]c3)cc1OCCN(C)C)CO2
EXPERIMENTAL SYSTEM: Phospholipid hydroperoxide glutathione peroxidase GPX4 (Homo sapiens) (UniProt P36969)
CAT: false (0)
//
COMPOUND: N#CCC(C1CCCC1)n1cc(-c2ncnc3[nH]ccc23)cn1 (stereo not drawn)
EXPERIMENTAL SYSTEM: Phospholipid hydroperoxide glutathione peroxidase GPX4 (Homo sapiens) (UniProt P36969)
CAT: true (1)
//
COMPOUND: CC1CCC2(NC1)OC1CC3C4CC=C5CC(O[C@@H]6O[C@H](CO)[C@@H](O[C@@H]7O[C@@H](C)[C@H](O)[C@@H](O)[C@H]7O)[C@H](O)[C@H]6O[C@@H]6O[C@@H](C)[C@H](O)[C@@H](O)[C@H]6O)CCC5(C)C4CCC3(C)C1C2C (stereo partly drawn)
EXPERIMENTAL SYSTEM: Phospholipid hydroperoxide glutathione peroxidase GPX4 (Homo sapiens) (UniProt P36969)
CAT: false (0)
//
COMPOUND: CC[C@H](CO)Nc1nc(Nc2cccc(-c3ccccn3)c2)c2ncn(C(C)C)c2n1
EXPERIMENTAL SYSTEM: Phospholipid hydroperoxide glutathione peroxidase GPX4 (Homo sapiens) (UniProt P36969)
CAT: false (0)
//
COMPOUND: COC(=O)/C=C/C(=O)N(O)CCCCNCc1ccc(COC(=O)Nc2cccc3ccccc23)cc1
EXPERIMENTAL SYSTEM: Phospholipid hydroperoxide glutathione peroxidase GPX4 (Homo sapiens) (UniProt P36969)
CAT: false (0)
//
COMPOUND: CC1=CC(=O)[C@@]2(C(C)C)C[C@@H]12
EXPERIMENTAL SYSTEM: Phospholipid hydroperoxide glutathione peroxidase GPX4 (Homo sapiens) (UniProt P36969)
CAT: false (0)
//
COMPOUND: CNC(=O)[C@H]1O[C@@H](n2cnc3c(NCc4cccc(I)c4)nc(Cl)nc32)[C@H](O)[C@@H]1O
EXPERIMENTAL SYSTEM: Phospholipid hydroperoxide glutathione peroxidase GPX4 (Homo sapiens) (UniProt P36969)
CAT: false (0)
